Target: HSP90 (Homo sapiens (Human), UniProt P07900)
Assay: HSP90 competition binding (fluorescence polarization) assay
Details: FITC labeled GM, 24 hours at 4° C.
pIC50: −log10 of the molar value.
METRIC: pIC50

                               given_smiles    test_value
0  CC(C)(C)CNCCCn1c(Sc2cc3c(cc2I)OCO3)nc2c(N)nccc21  6.00 to 7.00
